# assayed-target: CYP1A2 (Homo sapiens)
# Sequence (P05177 whole entry): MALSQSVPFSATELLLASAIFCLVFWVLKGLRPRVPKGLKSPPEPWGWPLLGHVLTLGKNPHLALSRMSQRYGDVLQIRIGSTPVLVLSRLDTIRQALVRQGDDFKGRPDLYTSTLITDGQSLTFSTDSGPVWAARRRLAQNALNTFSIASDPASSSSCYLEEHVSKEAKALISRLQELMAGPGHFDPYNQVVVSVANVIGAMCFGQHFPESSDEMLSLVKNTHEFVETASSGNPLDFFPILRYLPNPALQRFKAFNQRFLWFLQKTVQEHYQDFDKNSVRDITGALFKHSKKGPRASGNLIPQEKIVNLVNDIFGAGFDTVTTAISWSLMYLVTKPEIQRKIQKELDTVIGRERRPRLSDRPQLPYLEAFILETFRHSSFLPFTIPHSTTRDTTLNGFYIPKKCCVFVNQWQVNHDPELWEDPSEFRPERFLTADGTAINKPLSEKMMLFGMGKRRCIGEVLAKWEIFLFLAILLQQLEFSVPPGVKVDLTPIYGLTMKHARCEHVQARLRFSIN
# protocol-description: Inhibition of CYP1A2 (unknown origin) at 10 uM incubated for 20 mins by LC-MS/MS analysis
# Assay type: ADME
measured-parameter: inhibition at 20 min, 10 µM (%)
Only the number, expressed in %, is required.

# get_value(readout='inhibition at 20 min, 10 µM', item= O=S1(=O)CC2(OCCO2)c2cc3nccc(Nc4ccc5scnc5c4)c3cc21 ) 37

====

# protocol-description: Protein binding in mouse plasma by LC-MS/MS analysis
# Format: ADME, cell-free
# recorded-conditions: read-out: PPB (converted)
measured-parameter: fraction unbound
Reply with just the number.

# get_value(readout='fraction unbound', item= O=S1(=O)CC2(OCCO2)c2cc3nccc(Nc4ccc5scnc5c4)c3cc21 ) 0.027

====

# protocol-description: Metabolic stability in human liver microsomes assessed as intrinsic clearance by LC-MS/MS analysis
# Format: ADME, Microsome
measured-parameter: CLH (mL/min/kg)
Only the number, expressed in mL/min/kg, is required.

# get_value(readout='CLH', item= O=S1(=O)CC2(OCCO2)c2cc3nccc(Nc4ccc5scnc5c4)c3cc21 ) 60.5

====

# assayed-target: CYP2C9 (Homo sapiens, UniProt P11712)
# Sequence (P11712 whole entry): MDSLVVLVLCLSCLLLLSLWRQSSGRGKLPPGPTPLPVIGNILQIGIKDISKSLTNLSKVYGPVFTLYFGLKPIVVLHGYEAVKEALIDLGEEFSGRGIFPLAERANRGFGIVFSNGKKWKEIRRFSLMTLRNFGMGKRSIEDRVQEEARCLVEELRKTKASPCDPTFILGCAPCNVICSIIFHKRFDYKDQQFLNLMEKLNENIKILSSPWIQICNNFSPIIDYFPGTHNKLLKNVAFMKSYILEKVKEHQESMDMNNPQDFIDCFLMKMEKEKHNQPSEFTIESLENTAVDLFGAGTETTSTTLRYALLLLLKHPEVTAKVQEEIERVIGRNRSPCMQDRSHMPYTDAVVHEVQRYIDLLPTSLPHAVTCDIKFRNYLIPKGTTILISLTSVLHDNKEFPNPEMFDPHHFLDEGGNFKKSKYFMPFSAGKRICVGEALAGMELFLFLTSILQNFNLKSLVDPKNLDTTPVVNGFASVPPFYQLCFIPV
# protocol-description: Inhibition of CYP2C9 (unknown origin) at 10 uM incubated for 20 mins by LC-MS/MS analysis
# Assay type: ADME
measured-parameter: inhibition at 20 min, 10 µM (%)
Only the number, expressed in %, is required.

# get_value(readout='inhibition at 20 min, 10 µM', item= O=S1(=O)CC2(OCCO2)c2cc3nccc(Nc4ccc5scnc5c4)c3cc21 ) -6.33

====

# Test system: HT-29
# protocol-description: Cytotoxicity against human HT-29 cells assessed as cell death at 20 uM by celltiter-glo luminescent cell viability assay
# Type: cell-based
# recorded-conditions: ht-29, 20 µM
measured-parameter: Activity

In the examples that follow, each entry is paired with its recorded Activity.
1. CC1(C)C(=O)c2cc3nccc(Nc4cc(O)c(F)cc4F)c3cc2S1(=O)=O > 30%
2. CC1(C)C(=O)c2cc3nccc(Nc4cc(O)ccc4F)c3cc2S1(=O)=O > 30%

We next turn to a different compound, shown below.
# get_value(readout='Activity', item= Cc1ccc(O)cc1Nc1ccnc2cc3c(cc12)S(=O)(=O)C(C)(C)C3=O ) > 30%

Hey, just so you know, these numbers are from ChEMBL document CHEMBL4813992.
